- Read-out: CD38, CD38 (gene 952)
- experiment notes: BSK_SAg_CD38: BioMAP Diversity Plus: SAg Assay for CD38 Biomarker Activity (AID 2283087)
- condition context: primary human HUVEC with PBMC; actives raise or lower the signal
Active and inactive are the calls of the source. Rule for the calls: active = hit-call score of the fitted dose curve at least 0.9, where 1 is the maximum; inactive = score below 0.9.
Reply using exactly one outcome from 1.0 = active, 0.0 = inactive

As a guide, the following entries are already answered.
>  <molecule>
C=C(C)C(=O)OCCC(F)(F)C(F)(F)C(F)(F)C(F)(F)C(F)(C(F)(F)F)C(F)(F)F

>  <assigned class>
0.0

$$$$
>  <molecule>
O[Si](c1ccccc1)(c1ccccc1)c1ccccc1

>  <assigned class>
1.0

$$$$
>  <molecule>
CC(C)(C)C(=O)CC(=O)C(F)(F)C(F)(F)C(F)(F)F

>  <assigned class>
0.0

$$$$
>  <molecule>
CCCCOCCOCCOC(=O)CCCCC(=O)OCCOCCOCCCC

>  <assigned class>
0.0

$$$$

Record request — test call for FC(F)(F)C(F)(F)C(F)(F)C(F)(F)C(F)(F)CCI 0.0

Record request — test call for C=CC/C=C/C/C=C/C/C=C/C 0.0

Record request — test call for FC(F)(F)C(F)(F)C(F)(F)CI 0.0

Record request — test call for FC(F)(F)C(F)(F)C(F)(F)N(C(F)(F)C(F)(F)C(F)(F)F)C(F)(F)C(F)(F)C(F)(F)F 0.0

Record request — test call for C=CC(=O)OCC(F)(F)C(F)(F)C(F)(F)C(F)(F)C(F)(F)C(F)(F)C(F)(F)F 0.0

---

- experiment notes: BSK_SAg_PBMCCytotoxicity: PBMC Cytotoxicity Assessment in the BioMAP Diversity Plus: SAg Assay (AID 2283093);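 note: PBMC viability measured as Alamar Blue reduction fluorescence at 546/580 nm; fitted both ways against DMSO so a hit may be loss or gain of signal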
- condition context: primary human HUVEC with PBMC
Active and inactive are the calls of the source. Rule for the calls: active = hit-call score of the fitted dose curve at least 0.9, where 1 is the maximum; inactive = score below 0.9.
Reply using exactly one outcome from 1 = active, -1 = inactive

As a guide, the following entries are already answered.
>  <molecule>
CCO[Si](CCC(F)(F)C(F)(F)C(F)(F)C(F)(F)C(F)(F)C(F)(F)F)(OCC)OCC

>  <assigned class>
-1

$$$$
>  <molecule>
C=CC(=O)OCC(F)(F)C(F)(F)C(F)(F)C(F)(F)C(F)(F)C(F)(F)C(F)(F)F

>  <assigned class>
-1

$$$$
>  <molecule>
FC(F)(F)C(F)(F)C(F)(F)C(F)(F)C(F)(F)C(F)(F)CC1CO1 (stereo not given)

>  <assigned class>
-1

$$$$
>  <molecule>
C=C(C)C(=O)OCCC(F)(F)C(F)(F)C(F)(F)C(F)(F)C(F)(C(F)(F)F)C(F)(F)F

>  <assigned class>
-1

$$$$
>  <molecule>
OCC(F)(F)C(F)(F)C(F)(F)F

>  <assigned class>
-1

$$$$
>  <molecule>
CCCCCCCCCCCCCCCC[N+](C)(C)Cc1ccccc1

>  <assigned class>
1

$$$$

Record request — test call for CCCCOCCOCCOC(=O)CCCCC(=O)OCCOCCOCCCC -1

Record request — test call for CCc1ccc(C(c2ccc(CC)cc2)C(Cl)Cl)cc1 1

Record request — test call for O=C(O)C(F)(OC(F)(F)C(F)(OC(F)(F)C(F)(F)C(F)(F)F)C(F)(F)F)C(F)(F)F (stereo not given) -1

Record request — test call for O=C(O)C(F)(F)C(F)(F)F -1

---

- experiment notes: Tanguay_ZF_120hpf_AXIS: Oregon State University Tanguay Lab 120 Hour Post-fertilization zebrafish Assay for Axial Malformation (AID 2284398)
Activity calls are given as the source filed them. How the source made its calls: active means hit-call score of the fitted dose curve at least 0.9, where 1 is the maximum; inactive means score below 0.9.
Reply using exactly one outcome from 1 (active), -1 (inactive)

>  <compound>
C=C(C)C(=O)OCC(F)(F)C(F)(F)C(F)(F)C(F)(F)C(F)(F)C(F)(F)C(F)(F)F

>  <assigned class>
-1

$$$$
>  <compound>
O=C(O)C(F)(F)C(F)(F)F

>  <assigned class>
-1

$$$$

# input for lookup
Record request — test call for FC(F)(F)C(F)(F)C(F)(F)C(F)(F)C(F)(F)C(F)(F)C(F)(F)C(F)(F)CCS -1

---

- Read-out: E-selectin (Homo sapiens) (UniProt P16581)
- Sequence (P16581 whole entry, looked up): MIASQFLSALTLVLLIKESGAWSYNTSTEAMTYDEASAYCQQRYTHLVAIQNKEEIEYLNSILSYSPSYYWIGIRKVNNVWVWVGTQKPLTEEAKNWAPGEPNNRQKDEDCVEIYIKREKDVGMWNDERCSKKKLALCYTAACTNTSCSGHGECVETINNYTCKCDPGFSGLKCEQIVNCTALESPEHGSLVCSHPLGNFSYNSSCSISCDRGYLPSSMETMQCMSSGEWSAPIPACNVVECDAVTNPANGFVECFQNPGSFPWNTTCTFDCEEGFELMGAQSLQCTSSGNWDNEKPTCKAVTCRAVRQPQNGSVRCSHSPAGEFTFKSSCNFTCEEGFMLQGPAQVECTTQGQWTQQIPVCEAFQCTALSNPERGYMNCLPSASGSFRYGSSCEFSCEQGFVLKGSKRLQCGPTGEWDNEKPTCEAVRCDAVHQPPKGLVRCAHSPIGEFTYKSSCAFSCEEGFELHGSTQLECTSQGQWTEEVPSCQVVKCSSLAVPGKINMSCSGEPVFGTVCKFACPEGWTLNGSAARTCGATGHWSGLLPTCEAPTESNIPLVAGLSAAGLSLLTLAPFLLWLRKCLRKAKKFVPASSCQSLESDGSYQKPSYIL
- experiment notes: BSK_SAg_Eselectin: BioMAP Diversity Plus: SAg Assay for Eselectin Biomarker Activity (AID 2283091)
- condition context: primary human HUVEC with PBMC; actives raise or lower the signal
The source made the active and inactive calls. How the source made its calls: active means hit-call score of the fitted dose curve at least 0.9, where 1 is the maximum; inactive means score below 0.9.
Reply using exactly one outcome from active, inactive

As a guide, the following entries are already answered.
>  <compound>
O[Si](c1ccccc1)(c1ccccc1)c1ccccc1

>  <assigned class>
active

$$$$
>  <compound>
FC1CC(F)(F)C(F)(F)C1(F)F (stereo unspecified)

>  <assigned class>
inactive

$$$$
>  <compound>
FC(F)(F)C(F)(F)C(F)(F)C(F)(F)C(F)(F)C(F)(F)C(F)(F)C(F)(F)CCS

>  <assigned class>
inactive

$$$$
>  <compound>
O=P(O)(O)OCCC(F)(F)C(F)(F)C(F)(F)C(F)(F)C(F)(F)C(F)(F)F

>  <assigned class>
inactive

$$$$
>  <compound>
O=S(=O)(OCC(F)F)C(F)(F)F

>  <assigned class>
inactive

$$$$

Record request — test call for FC(F)(F)C(F)(F)C(F)(F)C(F)(F)C(F)(F)C(F)(F)C(F)(F)C(F)(F)F inactive

Record request — test call for CCCCCCCCC(F)(F)C(F)(F)C(F)(F)C(F)(F)C(F)(F)C(F)(F)F inactive

Record request — test call for O=C(O)C(F)(OC(F)(F)C(F)(OC(F)(F)C(F)(F)C(F)(F)F)C(F)(F)F)C(F)(F)F (stereo unspecified) inactive

Record request — test call for FC(F)(F)C(F)(F)C(F)(F)C(F)(F)C(F)(F)C(F)(F)CCS inactive

Record request — test call for C#C[C@]1(O)CC[C@H]2[C@@H]3CCc4cc(OC)ccc4[C@H]3CC[C@@]21C inactive

Record request — test call for O=C(O)C(F)(F)C(F)(F)C(F)(F)F inactive

Record request — test call for C=C(C)C(=O)OCC(F)(F)C(F)(F)C(F)(F)F inactive

Record request — test call for FC(F)(F)C(F)(F)C(F)(F)C(F)(F)C(F)(F)C(F)(F)C(F)(F)I inactive

---

- Read-out: Interleukin 6 (IL6), IL6 (gene 3569)
- experiment notes: BSK_BT_xIL6: BioMAP Diversity Plus: BT Assay for Interleukin 6 (IL6) Biomarker Activity (AID 2284228)
- condition context: primary human B cells with PBMC
Active and inactive are the calls of the source. The calls were made as follows: active = hit-call score of the fitted dose curve at least 0.9, where 1 is the maximum; inactive = score below 0.9.
Reply using exactly one outcome from 1 = active, 0 = inactive

>  <molecule>
FC(F)(F)C(F)(F)C(F)(F)C(F)(F)C(F)(F)C(F)(F)C(F)(F)Br

>  <assigned class>
0

$$$$
>  <molecule>
FC(F)(F)C(F)(F)C(F)(F)N(C(F)(F)C(F)(F)C(F)(F)F)C(F)(F)C(F)(F)C(F)(F)F

>  <assigned class>
0

$$$$
>  <molecule>
C=C(C)C(=O)OCC(F)(F)C(F)(F)C(F)(F)C(F)(F)C(F)(F)C(F)(F)C(F)(F)F

>  <assigned class>
0

$$$$
>  <molecule>
NC(=O)C(F)(F)C(F)(F)C(F)(F)C(F)(F)F

>  <assigned class>
0

$$$$
>  <molecule>
OCCCC(F)(F)C(F)(F)C(F)(F)F

>  <assigned class>
0

$$$$
>  <molecule>
FC1CC(F)(F)C(F)(F)C1(F)F (centres undefined)

>  <assigned class>
0

$$$$

Record request — test call for C=CC(F)(F)C(F)(F)C(F)(F)C(F)(F)C(F)(F)C(F)(F)C(F)(F)C(F)(F)C=C 0

Record request — test call for FC(F)(F)C(F)(F)C(F)(F)C(F)(F)C(F)(F)C(F)(F)C(F)(F)I 0

Record request — test call for C=C(C)C(=O)OCC(F)(F)C(F)(F)C(F)(F)F 0

Record request — test call for CCc1ccc(C(c2ccc(CC)cc2)C(Cl)Cl)cc1 1

Record request — test call for CCCCCCCCCCCCCCCC[N+](C)(C)Cc1ccccc1 1

Record request — test call for O=C(O)C(F)(F)C(F)(F)C(F)F 0

Record request — test call for OCC(F)(F)C(F)(F)C(F)(F)C(F)(F)C(F)(F)C(F)(F)F 0

Record request — test call for COC(=O)CCC(F)(F)C(F)(F)C(F)(F)C(F)(F)F 0

Record request — test call for CS(C)(=O)=O 0

Record request — test call for O=S(=O)(O)C(F)(F)C(F)(F)C(F)(F)C(F)(F)C(F)(F)C(F)(F)C(F)(F)F 0

Record request — test call for CCO[Si](CCC(F)(F)C(F)(F)C(F)(F)C(F)(F)C(F)(F)C(F)(F)F)(OCC)OCC 0

Record request — test call for O=C(O)C(F)(F)C(F)(F)F 0

---

- experiment notes: ATG_E_Box_CIS: Attagene CIS-FACTORIAL HepG2 Assay for human Enhancer Box (E-box) (AID 2282936)
- condition context: HepG2 E-box cis-reporter transcription, actives raise or lower the signal
Active and inactive are the calls of the source. The calls were made as follows: active = hit-call score of the fitted dose curve at least 0.9, where 1 is the maximum; inactive = score below 0.9.
Reply using exactly one outcome from active, inactive

As a guide, the following entries are already answered.
>  <compound>
CC(C)c1ccccc1N

>  <assigned class>
inactive

$$$$
>  <compound>
CC(Cc1ccc(O)c(O)c1)C(C)Cc1ccc(O)c(O)c1 (stereo unspecified)

>  <assigned class>
inactive

$$$$
>  <compound>
O=S(=O)(OCC(F)F)C(F)(F)F

>  <assigned class>
inactive

$$$$
>  <compound>
O=C(O)C(F)(OC(F)(F)C(F)(OC(F)(F)C(F)(OC(F)(F)C(F)(F)C(F)(F)F)C(F)(F)F)C(F)(F)F)C(F)(F)F (stereo unspecified)

>  <assigned class>
inactive

$$$$
>  <compound>
O=C(C=Cc1ccccc1)OCC=Cc1ccccc1

>  <assigned class>
inactive

$$$$

Record request — test call for FC(F)(F)C(F)(F)C(F)(F)C(F)(F)CCI inactive

Record request — test call for FC(F)(F)C(F)(F)C(F)(F)C(F)(F)C(F)(F)C(F)(F)C(F)(F)I inactive

Record request — test call for O=C(O)C(F)(OC(F)(F)C(F)(OC(F)(F)C(F)(F)C(F)(F)F)C(F)(F)F)C(F)(F)F (stereo unspecified) inactive

Record request — test call for O=C(O)C(F)(F)C(F)(F)C(F)(F)C(F)(F)F inactive

Record request — test call for CS(C)(=O)=O inactive

Record request — test call for NC(=O)C(F)(F)C(F)(F)C(F)(F)C(F)(F)F inactive

Record request — test call for FC(F)(F)C(F)(F)C(F)(F)C(F)(F)C(F)(F)C(F)(F)C(F)(F)C(F)(F)F inactive

Record request — test call for FC(F)(F)C(F)(F)C(F)(F)C(F)(F)C(F)(F)C(F)(F)C(F)(F)C(F)(F)CCS inactive

All values here come from PubChem BioAssay (EPA / NIEHS).
